Listed below: inhibition values for each entry.
# assay_system: Trace amine-associated receptor 1 (Homo sapiens)
# assay_text: blockers of beta-PEA-driven TAAR1 calcium signal – Fluo-8 calcium fluorescence, CHO RD-HGA16 cells, primary screen (AID 624466);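 also: 0% = DMSO plus EC80 beta-PEA response and 100% = DMSO alone without agonist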
# condition_set: CHO RD-HGA16 TAAR1, Fluo-8 calcium fluorescence, antagonist; at 3 µM; hits give high values
Hit rate of the full screen: of about 360,000 compounds, about 5,400 (1.5%) were called active. Shown is part of a subset that was picked to be rich in actives.
// note: answer is a bare numeric in %

{"compound_structure_string": "COc1ccc(C(=O)Nc2cc(S(=O)(=O)N3CCCC3)ccc2Cl)cc1", "inhibition / %": 2.12}
{"compound_structure_string": "Cc1c(C(=O)Nc2ccccc2Cl)oc2ccc(S(=O)(=O)N3CCC4(CC3)OCCO4)cc12", "inhibition / %": 46.8}
{"compound_structure_string": "COc1ccc(C(=O)Nc2nc(-c3ccc(S(=O)(=O)N4CCOCC4)cc3)cs2)cc1", "inhibition / %": 60.4}
{"compound_structure_string": "COc1ccc(NC(=O)c2oc3ccc(S(=O)(=O)N4CCOCC4)cc3c2C)cc1", "inhibition / %": 57.4}
{"compound_structure_string": "COC(=O)COc1ccc(S(=O)(=O)N2CCOCC2)cc1", "inhibition / %": -11.5}

Task item: Report inhibition for `O=S1(=O)c2c(cccc2N2CCCC2)O[C@H](COCc2ccccc2)CN1C1CC1`
Reply: 23.8

Task item: Report inhibition for `Cc1c(C(=O)Nc2cccc(S(=O)(=O)N3CCOCC3)c2)oc2ccccc12`
Reply: 13.3
